Recorded values, source patent US20240116877A1.

Tested on: Ba/F3 KIT mutant cells
testDescription: Ba/F3 mutant KIT Cell Proliferation Assays (resazurin)
Format: cell-based
experimentalSetup: Mus musculus, BaF3; Ba/F3 KIT exon11del-V654A mutant cell proliferation; read-out: exon11del-V654A IC50
pIC50: −log10 of the molar value.
Field: pIC50. Provide a value for each of the compounds that follow.

>  <compound>
CC(C)(F)CCNC(=O)Nc1ccc(Nc2ncnc3cc(O[C@H]4CCOC4)cc(F)c23)cc1 [Example 160]

>  <pIC50>
7.00 to 8.00

$$$$
>  <compound>
COCCOc1ccc2ncnc(Nc3ccc(NC(=O)CC(=O)NC4CCC4)cc3)c2c1F [Example 207]

>  <pIC50>
< 6.00

$$$$
>  <compound>
COCCOc1cc(F)c2c(Nc3ccc(NC(=O)CC(=O)NC(C)C)cc3)ncnc2c1 [Example 96]

>  <pIC50>
7.00 to 8.00

$$$$
>  <compound>
CC(C)Oc1cc(F)c2c(Nc3ccc(NC(=O)NCCC(C)(C)F)cc3)ncnc2c1 [Example 6]

>  <pIC50>
≥ 8.00

$$$$
>  <compound>
COCCOc1cc(F)c2c(Nc3ccc(NC(=O)CC(=O)N4CC(C)(C)C4)cc3)ncnc2c1 [Example 139]

>  <pIC50>
≥ 8.00

$$$$

Give me pIC50 for each of these compounds, listed below.
1. COCCOc1cc(F)c2c(Nc3ccc(NC(=O)CC(=O)N4CC[C@H](C)C4)cc3)ncnc2c1 [Example 191]
2. COCCOc1cc(F)c2c(Nc3ccc(NC(=O)COCC(C)C)cc3)ncnc2c1 [Example 49]
3. COCCOc1cc(F)c2c(Nc3ccc(NC(=O)CC(=O)N4[C@@H](C)COC[C@@H]4C)cc3)ncnc2c1 [Example 199]

Completion:
6.00 to 7.00
7.00 to 8.00
< 6.00

---

What IC50 was measured for each of the following?
systemTested: c-KIT kinase (uKIT) (Homo sapiens (Human), UniProt P10721)
Sequence (P10721 other isoform, or with tags, fused parts or gaps): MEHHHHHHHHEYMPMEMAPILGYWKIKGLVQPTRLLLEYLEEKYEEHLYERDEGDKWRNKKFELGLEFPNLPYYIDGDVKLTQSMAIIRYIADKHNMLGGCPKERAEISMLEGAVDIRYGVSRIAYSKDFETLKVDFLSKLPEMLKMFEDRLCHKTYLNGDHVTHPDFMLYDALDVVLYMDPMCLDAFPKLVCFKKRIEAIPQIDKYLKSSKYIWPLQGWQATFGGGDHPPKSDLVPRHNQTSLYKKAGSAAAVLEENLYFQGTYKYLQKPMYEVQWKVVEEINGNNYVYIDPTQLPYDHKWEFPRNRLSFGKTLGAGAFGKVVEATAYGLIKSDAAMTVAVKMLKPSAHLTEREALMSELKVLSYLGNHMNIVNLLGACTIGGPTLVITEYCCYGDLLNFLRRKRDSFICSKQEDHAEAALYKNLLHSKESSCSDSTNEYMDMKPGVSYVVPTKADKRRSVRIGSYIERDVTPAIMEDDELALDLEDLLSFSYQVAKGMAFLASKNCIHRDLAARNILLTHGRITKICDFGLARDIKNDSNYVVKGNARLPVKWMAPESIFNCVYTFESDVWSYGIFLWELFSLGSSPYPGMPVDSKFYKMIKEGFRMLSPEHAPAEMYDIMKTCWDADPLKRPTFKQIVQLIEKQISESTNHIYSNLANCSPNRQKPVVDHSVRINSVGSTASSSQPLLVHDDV

Field: example entries. Status: answers known.
>  <compound>
COCCOc1cc(F)c2c(Nc3ccc(NC(=O)CC(=O)NC4CCC4)cc3)ncnc2c1 [Example 95]

>  <IC50>
≤ 10 nM

$$$$
>  <compound>
COCCOc1cc(F)c2c(Nc3ccc(NC(=O)COCC4CCOC4)cc3)ncnc2c1 (centres unmarked) [Example 59]

>  <IC50>
10 to 100 nM

$$$$
>  <compound>
COCCCOc1cc(F)c2c(Nc3ccc(NC(=O)NCCC(C)(C)F)cc3)ncnc2c1 [Example 120]

>  <IC50>
≤ 10 nM

$$$$
>  <compound>
CC(C)(F)CCNC(=O)Nc1ccc(Nc2ncnc3cc(OCCC4COC4)cc(F)c23)cc1 [Example 159]

>  <IC50>
≤ 10 nM

$$$$
>  <compound>
CC(C)(F)CCNC(=O)Nc1ccc(Nc2ncnc3cc(OC[C@H]4CCOC4)cc(F)c23)cc1 [Example 151]

>  <IC50>
≤ 10 nM

$$$$

Hi! Can you tell me IC50 for each of these compounds?
1. COCCOc1cc(F)c2c(Nc3ccc(NC(=O)C(C)NC(=O)CC(C)C)cc3)ncnc2c1 (centres unmarked) [Example 55]
2. COCCOc1cc(F)c2c(Nc3ccc(NC(=O)CC4CCC(F)(F)CC4)cc3)ncnc2c1 [Example 41]
3. COCCOc1cc(F)c2c(Nc3ccc(NC(=O)CC(=O)NCC(C)(C)F)cc3)ncnc2c1 [Example 89]

Completion:
1: 100 to 1000 nM; 2: ≤ 10 nM; 3: 10 to 100 nM
